Origin of values: ChEMBL document CHEMBL2021824

# ASSAY_DETAILS: Half life of the compound in GSH-containing buffer
# Assay type: physicochemical
MEASUREMENT_NAME: t1/2 (min)
Numbers only; they are read as min.

Study these solved cases before continuing.
[[record]]
structure = "CCOC(=O)N1CCCN(/[N+]([O-])=N/Oc2ccc([N+](=O)[O-])cc2C#N)CC1"
reported = 66

[[record]]
structure = "CCOC(=O)N1CCN(/[N+]([O-])=N/Oc2ccc([N+](=O)[O-])cc2C#N)CC1"
reported = 33.6

[[record]]
structure = "CCOC(=O)N1CCN(/[N+]([O-])=N/Oc2ccc(C#N)cc2[N+](=O)[O-])CC1"
reported = 22.1

[[record]]
structure = "CCOC(=O)N1CCCN(/[N+]([O-])=N/Oc2ccc(C#N)cc2[N+](=O)[O-])CC1"
reported = 42.6


Kindly consider the entry below.
## Input What t1/2 value was documented for this molecule, CCOC(=O)N1CCN(/[N+]([O-])=N/Oc2ccc(C#N)cc2C#N)CC1 ?
## Output 918
